meta.source: the NIST ThermoML archive (doi:10.1021/je060339m)

Reported mass density is given for each of the following molecules.
# ASSAY_SETUP: 328.15 K; 20000 kPa; Liquid
± gives the expanded uncertainty stated by the source.
METRIC_NAME: mass density

[
  {
    "MOLECULE": "CCCCCOC(C)=O [pentyl ethanoate]",
    "OBSERVED_RESULT": "860 ± 5.7 kg/m3"
  },
  {
    "MOLECULE": "CCCOC(C)=O [propyl ethanoate]",
    "OBSERVED_RESULT": "868.7 ± 5.7 kg/m3"
  },
  {
    "MOLECULE": "CCOC(C)=O [ethyl acetate]",
    "OBSERVED_RESULT": "879 ± 5.5 kg/m3"
  },
  {
    "MOLECULE": "CCCCOC(C)=O [butyl ethanoate]",
    "OBSERVED_RESULT": "863.6 ± 5.5 kg/m3"
  }
]

====

Reported mass density is given for each of the following compounds.
# ASSAY_SETUP: 363.15 K; 3000 kPa; Liquid
Numbers after ± are expanded uncertainties.
METRIC_NAME: mass density

[
  {
    "COMPOUND": "CCCCCOC(C)=O [pentyl ethanoate]",
    "OBSERVED_RESULT": "809.9 ± 3.7 kg/m3"
  },
  {
    "COMPOUND": "CCCCOC(C)=O [butyl ethanoate]",
    "OBSERVED_RESULT": "810.1 ± 3.5 kg/m3"
  },
  {
    "COMPOUND": "CCCOC(C)=O [propyl ethanoate]",
    "OBSERVED_RESULT": "810 ± 3.7 kg/m3"
  },
  {
    "COMPOUND": "CCOC(C)=O [ethyl acetate]",
    "OBSERVED_RESULT": "815.3 ± 3.5 kg/m3"
  }
]

====

# ASSAY_SETUP: 313.15 K; 1000 kPa; Liquid
Reported mass density is given for each of the following molecules.
METRIC_NAME: mass density (kg/m3)

[
  {
    "MOLECULE": "CCCCOC(C)=O [butyl ethanoate]",
    "OBSERVED_RESULT": 860.8
  },
  {
    "MOLECULE": "CCCOC(C)=O [propyl ethanoate]",
    "OBSERVED_RESULT": 865.5
  },
  {
    "MOLECULE": "CCCCCOC(C)=O [pentyl ethanoate]",
    "OBSERVED_RESULT": 857.4
  },
  {
    "MOLECULE": "CCOC(C)=O [ethyl acetate]",
    "OBSERVED_RESULT": 876.1
  }
]

====

Reported mass density is given for each of the following compounds.
# ASSAY_SETUP: 393.15 K; 15000 kPa; Liquid
Numbers after ± are expanded uncertainties.
METRIC_NAME: mass density

[
  {
    "COMPOUND": "CCOC(C)=O [ethyl acetate]",
    "OBSERVED_RESULT": "799.4 ± 5 kg/m3"
  },
  {
    "COMPOUND": "CCCCOC(C)=O [butyl ethanoate]",
    "OBSERVED_RESULT": "797.7 ± 5 kg/m3"
  },
  {
    "COMPOUND": "CCCOC(C)=O [propyl ethanoate]",
    "OBSERVED_RESULT": "796.5 ± 5.2 kg/m3"
  },
  {
    "COMPOUND": "CCCCCOC(C)=O [pentyl ethanoate]",
    "OBSERVED_RESULT": "798.4 ± 5.2 kg/m3"
  }
]
